Conditions: rat, in vivo, iv, 2 mg/kg
Bridge positions count the residues as written; N and C are the ends. Square brackets hold non-standard residues; d marks the D form. Peptide text beside a SMILES is read from it. * marks the point of attachment. Piperazin2one(3S-Bu,6R-CO) = CCCC[C@@H]1NC[C@H](C(=O)*)NC1=O; X1 = N=C(N)NCCC[C@H]1C(=O)N[C@@H](C(N)=O)CN1*; dNle = CCCC[C@@H](N)C(=O)O; Heptanoyl = CCCCCCC(=O)*; Nle = CCCC[C@H](N)C(=O)O
# maps each entry to its AUC
Your answer is read as µM·h, so omit the unit and give the number.

Some solved cases for reference:
{"Molecule": "CCCC[C@@H]1NC[C@H](C(=O)N[C@H]2CSSC[C@@H](C(=O)N[C@@H](Cc3ccc(O)cc3)C(=O)N3C[C@H](C(N)=O)NC(=O)[C@@H]3CCCNC(=N)N)NC(=O)[C@H](CO)NC(=O)[C@H]([C@@H](C)CC)NC(=O)[C@H](CCCNC(=N)N)NC(=O)[C@H](CC(=O)O)NC(=O)[C@H](CCCC)NC(=O)[C@H](CCCNC(=N)N)NC(=O)CNC(=O)CNC(=O)[C@H](Cc3ccccc3)NC(=O)[C@H](Cc3c[nH]cn3)NC2=O)NC1=O [1-18] ({Piperazin2one(3S-Bu,6R-CO)}-CHFGGR[Nle]DRISCY-X1; disulfide 1-12)", "Value Measured": 0.263}
{"Molecule": "CCCC[C@@H]1NC[C@H](C(=O)N[C@H]2CSSC[C@@H](C(=O)N[C@@H](Cc3ccc(O)cc3)C(=O)N3C[C@H](C(N)=O)NC(=O)[C@@H]3CCCNC(=N)N)NC(=O)[C@H](CO)NC(=O)[C@H]([C@@H](C)CC)NC(=O)[C@H](CCCNC(=N)N)NC(=O)[C@H](CC(=O)O)NC(=O)[C@@H](CCCC)NC(=O)[C@H](CCCNC(=N)N)NC(=O)CNC(=O)CNC(=O)[C@H](Cc3ccccc3)NC(=O)[C@H](Cc3c[nH]cn3)NC2=O)NC1=O [1-43] ({Piperazin2one(3S-Bu,6R-CO)}-CHFGGR[dNle]DRISCY-X1; disulfide 1-12)", "Value Measured": 1.25}

stdin: Would you mind telling me what AUC value was observed for CCCC[C@@H]1NC[C@H](C(=O)N[C@H]2CSSC[C@@H](C(=O)N[C@@H](Cc3ccc(O)cc3)C(=O)N3C[C@H](C(N)=O)NC(=O)[C@@H]3CCCNC(=N)N)NC(=O)[C@H](CO)NC(=O)[C@H]([C@@H](C)CC)NC(=O)[C@H](CCCNC(=N)N)NC(=O)[C@H](CC(=O)O)NC(=O)[C@H](CCCC)NC(=O)[C@@H](CCCNC(=N)N)NC(=O)CNC(=O)CNC(=O)[C@H](Cc3ccccc3)NC(=O)[C@H](Cc3c[nH]cn3)NC2=O)NC1=O [1-42] ({Piperazin2one(3S-Bu,6R-CO)}-CHFGG[dR][Nle]DRISCY-X1; disulfide 1-12) ?
stdout: 0.369

stdin: Would you mind telling me what AUC value was observed for CCCCCCC(=O)N[C@H]1CSSC[C@@H](C(=O)N[C@@H](Cc2ccc(O)cc2)C(=O)N2C[C@H](C(N)=O)NC(=O)[C@@H]2CCCNC(=N)N)NC(=O)[C@H](CO)NC(=O)[C@H]([C@@H](C)CC)NC(=O)[C@H](CCCNC(=N)N)NC(=O)[C@H](CC(=O)O)NC(=O)[C@H](CCCC)NC(=O)[C@H](CCCNC(=N)N)NC(=O)CNC(=O)CNC(=O)[C@H](Cc2ccccc2)NC(=O)[C@H](Cc2c[nH]cn2)NC1=O [1-63] (Heptanoyl-CHFGGR[Nle]DRISCY-X1; disulfide 1-12) ?
stdout: 0.067
